Molecular target: T1, soluble cynomolgus GPNMB (recombinant extracellular domain) (cynomolgus, UniProt Q14956 23-499 (human entry), limits assumed)
T1 chain: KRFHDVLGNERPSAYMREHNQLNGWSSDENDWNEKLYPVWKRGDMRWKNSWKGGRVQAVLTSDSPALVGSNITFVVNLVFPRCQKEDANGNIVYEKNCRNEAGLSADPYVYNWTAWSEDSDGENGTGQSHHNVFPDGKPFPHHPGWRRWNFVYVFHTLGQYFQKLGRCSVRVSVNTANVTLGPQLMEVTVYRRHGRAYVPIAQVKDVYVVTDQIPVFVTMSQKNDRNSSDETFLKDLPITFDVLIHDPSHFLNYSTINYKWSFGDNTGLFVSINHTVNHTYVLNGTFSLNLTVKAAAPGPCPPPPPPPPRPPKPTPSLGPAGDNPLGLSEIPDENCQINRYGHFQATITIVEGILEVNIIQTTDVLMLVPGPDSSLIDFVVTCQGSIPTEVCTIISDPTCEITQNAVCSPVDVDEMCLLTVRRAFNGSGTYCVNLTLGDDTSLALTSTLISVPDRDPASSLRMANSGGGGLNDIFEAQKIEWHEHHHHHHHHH
Assay: SPR Biacore, IgG captured
Protocol: Binding kinetics of the humanized and affinity matured anti-GPNMB antibodies described above were evaluated using the Biacore T200 (Cytiva). […] Data were analyzed using Biacore evaluation software to generate kinetic constants. The equilibrium dissociation constants (KD) were calculated from the fitted association and dissociation rate constants (k-on and k-off) for each of the anti-GPNMB antibodies.
measurement_type: Kd (nM)
Reply numerically in nM, unit not repeated.

query: Query (binder): anti-GPNMB antibody GPN-95 (antibody, V domains shown, also called PGN-95) VH: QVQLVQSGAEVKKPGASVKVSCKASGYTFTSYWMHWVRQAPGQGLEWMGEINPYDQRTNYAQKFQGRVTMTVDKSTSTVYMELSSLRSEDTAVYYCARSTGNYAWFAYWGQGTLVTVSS VL: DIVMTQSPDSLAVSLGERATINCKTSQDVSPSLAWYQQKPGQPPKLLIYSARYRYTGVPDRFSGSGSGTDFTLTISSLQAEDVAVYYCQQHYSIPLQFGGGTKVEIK ; field requested: Kd
result: 8.3

query: Query (binder): anti-GPNMB antibody GPN-93 (antibody, V domains shown) VH: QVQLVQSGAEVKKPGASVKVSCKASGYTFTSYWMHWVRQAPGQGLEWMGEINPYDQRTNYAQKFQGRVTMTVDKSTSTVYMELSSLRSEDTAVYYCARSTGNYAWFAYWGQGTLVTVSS VL: DIVMTQSPDSLAVSLGERATINCKTSQDVSPSLAWYQQKPGQPPKLLIYSASKRYTGVPDRFSGSGSGTDFTLTISSLQAEDVAVYYCQQHYSIPLQFGGGTKVEIK ; field requested: Kd
result: 10.6
